Taken from patent US20110105389A1.

# key: entry, value: IC50
# system: human ghrelin receptor (GRLN, growth hormone secretagogue receptor, hGHS-R1a) (Homo sapiens, UniProt Q92847)
# Construct: purchased PerkinElmer BioSignal #RBHGHSM, lot#1887; host or cells: HEK-293 cells, stably transfected (membranes)
# Sequence (Q92847 whole entry): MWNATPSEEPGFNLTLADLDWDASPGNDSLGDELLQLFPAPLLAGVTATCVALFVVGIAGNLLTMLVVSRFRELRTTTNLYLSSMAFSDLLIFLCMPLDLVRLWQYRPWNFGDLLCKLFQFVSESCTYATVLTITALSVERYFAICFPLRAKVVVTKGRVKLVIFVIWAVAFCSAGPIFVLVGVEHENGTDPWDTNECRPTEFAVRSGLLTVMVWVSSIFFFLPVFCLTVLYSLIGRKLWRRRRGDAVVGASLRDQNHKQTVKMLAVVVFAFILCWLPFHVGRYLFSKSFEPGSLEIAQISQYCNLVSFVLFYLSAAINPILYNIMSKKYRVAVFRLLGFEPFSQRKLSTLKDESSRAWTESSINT
# assayProtocol: Competitive radioligand binding assay (ghrelin receptor), Method B1
# testSettings: Ghrelin receptor binding activity, Method B1
# Description: Multiscreen Harvest plates-GF/C (Millipore, #MAHFC1H60) • 4. […] Bottom seal (Millipore, #MATAH0P00) • 7. […] Binding Buffer: 25 mM Hepes (pH 7.4), 1 mM CaCl2, 5 mM MgCl2. 2.5 mM EDTA, 0.4% BSA […] Plates were sealed with TopSeal-A, vortexed gently and incubated at rt for 30 min. […] Plates were than sealed with TopSeal-A and counted for 30 sec per well on a TopCount Microplate Scintillation and Luminescence Counter (PerkinElmer) using a count delay of 60 sec. Results were expressed as counts per minute (cpm). […]

Examples with their reported IC50 follow.
compound | IC50
CC[C@@H]1C#Cc2ccccc2O[C@H](C)CN[C@@H](C2(C)CC2)C(=O)N(C)[C@@H](C(C)O)C(=O)N[C@H](Cc2c[nH]c3ccccc23)C(=O)N1 (stereo partly drawn) | 1 to 10 nM
CC[C@@H]1C#Cc2c(F)cccc2OCCN[C@@H](C(C)C)C(=O)N(C)[C@@H](C(C)O)C(=O)N[C@H](Cc2c[nH]c3ccccc23)C(=O)N1 (stereo partly drawn) | 10 to 100 nM
CC(O)C1C(=O)NC(Cc2ccccc2)C(=O)NCC2CCc3cccc(c3C2)OCCNC(C2CCCCC2)C(=O)N1C (stereo not drawn) | 10 to 100 nM
CC(O)[C@H]1C(=O)N[C@H](Cc2ccc(Cl)cc2)C(=O)N[C@H](C)CCc2ccccc2OCCN[C@@H](C2CCCCC2)C(=O)N1C (stereo partly drawn) | > 500 nM
CCC1CCc2ccc(F)cc2OCCNC(CC)C(=O)N(C)C(C(C)O)C(=O)NC(Cc2c[nH]c3ccccc23)C(=O)N1 (stereo not drawn) | 10 to 100 nM

API: the following record is the query input.
Suppose we examine the compound CC(C)[C@@H]1NCC2CCc3cccc(c3O2)CCCNC(=O)[C@@H](Cc2ccccc2)NC(=O)[C@H](C(C)O)N(C)C1=O (stereo partly drawn) ; what IC50 value has been reported? 1 to 10 nM
